- System: NCI-H647
- TEST_PROTOCOL: relative viability (nuclei count vs DMSO), 5 days (fraction); higher = more cells survive
- STATED_CONDITIONS: first compound 0.8 µM
MEASUREMENT_LABEL: relative viability
# answer = number (no unit)

Would you please look over these solved cases?
# COMPOUND, relative viability
rows = [
    ("CCCCCCCCCCCC1=C(O)C(=O)C=C(O)C1=O [Embelin] + O=C(CCCCCCC(=O)Nc1ccccc1)NO [Vorinostat] (partner 1 µM)", 0.985),
    ("CCCCCCCCCCCC1=C(O)C(=O)C=C(O)C1=O [Embelin] + C[C@]1(O)C[C@@H](c2nc(-c3ccc4ccc(-c5ccccc5)nc4c3)c3c(N)nccn32)C1 [Linsitinib] (partner 1 µM)", 1.27),
    ("CCCCCCCCCCCC1=C(O)C(=O)C=C(O)C1=O [Embelin] + CC(=O)Nc1cccc(-n2c(=O)n(C3CC3)c(=O)c3c(Nc4ccc(I)cc4F)n(C)c(=O)c(C)c32)c1 [Trametinib] (partner 0.02 µM)", 0.528),
    ("CCCCCCCCCCCC1=C(O)C(=O)C=C(O)C1=O [Embelin] + Cc1nc(NC(=O)N2CCC[C@H]2C(N)=O)sc1-c1ccnc(C(C)(C)C(F)(F)F)c1 [Alpelisib] (partner 2 µM)", 1.15),
]

Record request: relative viability value, item CCCCCCCCCCCC1=C(O)C(=O)C=C(O)C1=O [Embelin] + Nc1nc2[nH]cc(CCc3ccc(C(=O)N[C@@H](CCC(=O)O)C(=O)O)cc3)c2c(=O)[nH]1 [Pemetrexed] (partner 0.2 µM)
0.246

Record request: relative viability value, item CCCCCCCCCCCC1=C(O)C(=O)C=C(O)C1=O [Embelin] + COc1cc2c(Oc3ccc(NC(=O)C4(C(=O)Nc5ccc(F)cc5)CC4)cc3F)ccnc2cc1OCCCN1CCOCC1 [Foretinib] (partner 0.25 µM)
1.38

====

Entries and their relative viability
- Tested on: LOU-NH91
- TEST_PROTOCOL: relative viability (nuclei count vs DMSO), 5 days (fraction); higher = more cells survive
- STATED_CONDITIONS: first compound 0.1265 µM
# answer = number (no unit)

Would you please look over these solved cases?
# COMPOUND, VAL
rows = [
    ("COc1cc(N2CCC(C(N)=O)CC2)ccc1Nc1nc(N)c(Cl)c(Nc2ccccc2S(=O)(=O)C(C)C)n1 [HG-5-88-01] + CS(=O)(=O)N1CCN(Cc2cc3nc(-c4cccc5[nH]ncc45)nc(N4CCOCC4)c3s2)CC1 [Pictilisib] (partner 1 µM)", 0.514),
    ("COc1cc(N2CCC(C(N)=O)CC2)ccc1Nc1nc(N)c(Cl)c(Nc2ccccc2S(=O)(=O)C(C)C)n1 [HG-5-88-01] + C[C@@H](Oc1cc(-c2cnn(C3CCNCC3)c2)cnc1N)c1c(Cl)ccc(F)c1Cl [Crizotinib] (partner 1 µM)", 0.737),
    ("C[C@@H]1CN(CC(=O)Nc2ccc3c(c2)Cc2cccc(-c4cc(=O)cc(N5CCOCC5)o4)c2S3)C[C@H](C)O1 + Cc1nc(NC(=O)N2CCC[C@H]2C(N)=O)sc1-c1ccnc(C(C)(C)C(F)(F)F)c1 [Alpelisib] (partner 2 µM)", 0.72),
    ("C[C@@H]1CN(CC(=O)Nc2ccc3c(c2)Cc2cccc(-c4cc(=O)cc(N5CCOCC5)o4)c2S3)C[C@H](C)O1 + CC1(C)CCC(c2ccc(Cl)cc2)=C(CN2CCN(c3ccc(C(=O)NS(=O)(=O)c4ccc(N[C@H](CCN5CCOCC5)CSc5ccccc5)c(S(=O)(=O)C(F)(F)F)c4)cc3)CC2)C1 [Navitoclax] (partner 0.5 µM)", 0.617),
    ("Clc1ccc(Nc2nnc(Cc3ccncc3)c3ccccc23)cc1 [Vatalanib] + N=C(N)NC(=N)NCCc1ccccc1 [Phenformin] (partner 250 µM)", 0.679),
]

Give relative viability (LOU-NH91) of the following compound: Clc1ccc(Nc2nnc(Cc3ccncc3)c3ccccc23)cc1 [Vatalanib] + C[C@]1(O)C[C@@H](c2nc(-c3ccc4ccc(-c5ccccc5)nc4c3)c3c(N)nccn32)C1 [Linsitinib] (partner 1 µM)
0.921

Give relative viability (LOU-NH91) of the following compound: C[C@@H]1CN(CC(=O)Nc2ccc3c(c2)Cc2cccc(-c4cc(=O)cc(N5CCOCC5)o4)c2S3)C[C@H](C)O1 + N=C(N)NC(=N)NCCc1ccccc1 [Phenformin] (partner 250 µM)
0.691

Give relative viability (LOU-NH91) of the following compound: COc1cc(N2CCC(C(N)=O)CC2)ccc1Nc1nc(N)c(Cl)c(Nc2ccccc2S(=O)(=O)C(C)C)n1 [HG-5-88-01] + CS(=O)(=O)CCNCc1ccc(-c2ccc3ncnc(Nc4ccc(OCc5cccc(F)c5)c(Cl)c4)c3c2)o1 [Lapatinib] (partner 2 µM)
0.673
